Consider the following binders and their measured kon readings.
Target: T1, cyno CD3e (Macaca fascicularis (cynomolgus monkey), UniProt Q95LI5)
T1 construct: not described; also called cynomolgus CD3ε; cynomolgus CD3
T1 sequence (CD3 epsilon, looked up): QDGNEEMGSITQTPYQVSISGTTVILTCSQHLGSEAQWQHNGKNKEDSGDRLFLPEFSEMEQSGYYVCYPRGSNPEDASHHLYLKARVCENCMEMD
Experiment: kinetic Kd determination of the expressed scFv, method not named
Answer format: numeric, M⁻¹ s⁻¹ implied, no suffix.

Request: Quick one: kon for Anti-CD3, clone 3F2 (scFv, Expressed in Expi293 from the pcDNA3.4 His6 vector) scFv: EVQLVESGGGLVQPGGSLKLSCAASGFTYNKYAMNWVRQAPGKGLEWVARIRSKYNNYATYYADEVKDRFTISRDDSKNTAYLQMNNLKTEDTAVYYCVRHGNFGNSPISYWAYWGQGTLVTVSSGGGGSGGGGSGGGGSQTVVTQEPSLTVSPGGTVTLTCGSSKGAVTSGNYPNWVQQKPGQAPRGLIGGTKELAPGTPARFSGSLLGGKAALTLSGVQPEDEAEYYCTLWYSNRWVFGGGTKLTVLHHHHHH ?
Response: 712000

Request: Quick one: kon for Anti-CD3, clone 10E4 (scFv, Expressed in Expi293 from the pcDNA3.4 His6 vector) scFv: EVQLVESGGGLVQPGGSLKLSCAASGFTFNKYPMNWVRQAPGKGLEWVARIRSKYNNYATYYADSVKDRFTISRDDSKNTAYLQMNNLKNEDTAVYYCVRHGNFNNSYISYWAYWGQGTLVTVSSGGGGSGGGGSGGGGSQTVVTQEPSLTVSPGGTVTLTCGSSTGAVTKGNYPNWVQQKPGQAPRGLIGGTKMLAPGTPARFSGSLLGGKAALTLSGVQPEDEAEYYCALWYSNRWVFGGGTKLTVLHHHHHH ?
Response: 508000

Request: Quick one: kon for Anti-CD3, clone 6A2 (scFv, Expressed in Expi293 from the pcDNA3.4 His6 vector) scFv: EVQLVESGGGLVQPGGSLKLSCAASGFMFNKYAMNWVRQAPGKGLEWVARIRSKSNNYATYYADSVKDRFTISRDDSKNTAYLQMNNLKTEDTAVYYCVRHGNFGNSYISYWATWGQGTLVTVSSGGGGSGGGGSGGGGSQTVVTQEPSLTVSPGGTVTLTCGSSFGAVTSGNYPNWVQQKPGQAPRGLIGGTKLLAPGTPARFSGSLLGGKAALTLSGVQPEDEAEYYCVLWYSNSWVFGGGTKLTVLHHHHHH ?
Response: 456000
